Answer each item with its documented log10 EC50.
test system: monocytic THP1 cells infected with HIV VSV-G pseudotyped GFP-NEF reporter virus; experiment: cells; assay type: cell-based; details: Human immunodeficiency virus 1, THP-1, 24 h
The common logarithm of EC50 in nM is what is listed.

Prompt: Any idea what log10 EC50 was measured for Cc1cc(/C=C/C#N)cc(C)c1Oc1nc(NC23CC(C#N)(C2)C3)nc2nc(C)n(CC(F)F)c12 (single isomer, unassigned) ?
Completion: 1.41

Prompt: Any idea what log10 EC50 was measured for Cc1cc(/C=C/C#N)cc(C)c1Oc1nc(NC23CC(C#N)(C2)C3)nc2nc3n(c12)C[C@@H](O)CO3 (single isomer, unassigned) ?
Completion: 2.50

Prompt: Any idea what log10 EC50 was measured for Cc1cc(/C=C/C#N)cc(C)c1Oc1nc(NC23CC(C#N)(C2)C3)nc2[nH]c(=O)n(C)c12 ?
Completion: 1.51

Prompt: Any idea what log10 EC50 was measured for Cc1cc(/C=C/C#N)cc(C)c1Oc1nc(NC23CC(C#N)(C2)C3)nc2c1C(C)N(Cc1ccnn1C)C2=O (centres unmarked) ?
Completion: 1.67

Prompt: Any idea what log10 EC50 was measured for Cc1cc(/C=C/C#N)cc(C)c1Oc1nc(NC23CC(C#N)(C2)C3)nc2c1[C@H](C)N(CC(F)F)C2=O ?
Completion: 1.55

Prompt: Any idea what log10 EC50 was measured for Cc1cc(/C=C/C#N)cc(C)c1Oc1nc(NC23CC(C#N)(C2)C3)nc2c1C(O)(C(F)F)NC2=O (centres unmarked) ?
Completion: 2.09

Prompt: Any idea what log10 EC50 was measured for Cc1cc(/C=C/C#N)cc(C)c1Oc1nc(NC23CC(C#N)(C2)C3)nc2[nH]nnc12 ?
Completion: 2.77

Prompt: Any idea what log10 EC50 was measured for Cc1cc(/C=C/C#N)cc(C)c1Oc1nc(NC23CC(C#N)(C2)C3)nc2nn3ccccc3c12 ?
Completion: 1.60

Prompt: Any idea what log10 EC50 was measured for Cc1cc(/C=C/C#N)cc(C)c1Oc1nc(NC23CC(C#N)(C2)C3)nc2c1nc1n2CC2(CC2)CO1 ?
Completion: 2.05

Prompt: Any idea what log10 EC50 was measured for Cc1cc(/C=C/C#N)cc(C)c1Oc1nc(NC23CC(C#N)(C2)C3)nc2c1C(O)(CF)NC2=O (centres unmarked) ?
Completion: 1.94

Prompt: Any idea what log10 EC50 was measured for Cc1cc(/C=C/C#N)cc(C)c1Oc1nc(NC23CC(C#N)(C2)C3)nc2c1C1(C)OCC[C@@H](C)N1C2=O (some centres unmarked) ?
Completion: 1.83

Prompt: Any idea what log10 EC50 was measured for Cc1cc(/C=C/C#N)cc(C)c1Oc1nc(NC23CC(C#N)(C2)C3)nc2c1C(C)N(c1cnn3c1CCC3)C2=O (centres unmarked) ?
Completion: 1.71

Prompt: Any idea what log10 EC50 was measured for C/C(C#N)=C\c1cc(C)c(Oc2nc(NC34CC(C#N)(C3)C4)nc3nn(C)cc23)c(C)c1 ?
Completion: 2.25

Prompt: Any idea what log10 EC50 was measured for CCOc1nn(CC)c2c(Oc3c(C)cc(/C=C/C#N)cc3C)nc(NC34CC(C#N)(C3)C4)nc12 ?
Completion: 1.37

Data provenance: patent US20250333424A1
